# key: entry, value: pIC50
# TESTED_SYSTEM: UniProt:Q9UM07
# MEASUREMENT_PROTOCOL: RFMS Human PAD4 Functional Assay
# Type: biochemical
# TEST_PARAMETERS: human PAD4, rapid-fire mass spectrum (RFMS) assay; 5 nM hPAD4, 250 μM BAEE; read-out: hPAD4 RFMS IC50
// field semantics: pIC50 = negative decimal log of concentration (mol/L)

Worked examples follow.
1. COc1cc(C(=O)N2C[C@H]3CC[C@@H]2[C@@H]3N)cc2nc(-c3cc4cccc(C5CC(NC(C)=O)C5)c4n3CC3CC3)n(C)c12 (single isomer, unassigned) [Example 58] = 7.12
2. COc1cc(C(=O)N2C[C@H]3CC[C@@H]2[C@@H]3N)cc2nc(-c3cc4cccc(C5CCCC(C(N)=O)C5)c4n3CC3CC3)n(C)c12 (single isomer, unassigned) [Example 86] = 7.40
3. COc1cc(C(=O)N2C[C@H]3CC[C@@H]2[C@@H]3N)cc2nc(-c3cc4cccc(C5CC(NC(C)=O)C5)c4n3CC3CC3)n(C)c12 (single isomer, unassigned) [Example 59] = 7.23

Briefly, pIC50 measured for COc1cc(C(=O)N2C[C@H]3CC[C@@H]2[C@@H]3N)cc2nc(-c3cc4cccc(-c5ccc(O)c(C(=O)O)c5)c4n3CC3CC3)n(C)c12 [Example 121] : 6.12

* * *

# TESTED_SYSTEM: human PAD4 (hPAD4) (Homo sapiens, UniProt Q9UM07)
# Sequence (Q9UM07 whole entry): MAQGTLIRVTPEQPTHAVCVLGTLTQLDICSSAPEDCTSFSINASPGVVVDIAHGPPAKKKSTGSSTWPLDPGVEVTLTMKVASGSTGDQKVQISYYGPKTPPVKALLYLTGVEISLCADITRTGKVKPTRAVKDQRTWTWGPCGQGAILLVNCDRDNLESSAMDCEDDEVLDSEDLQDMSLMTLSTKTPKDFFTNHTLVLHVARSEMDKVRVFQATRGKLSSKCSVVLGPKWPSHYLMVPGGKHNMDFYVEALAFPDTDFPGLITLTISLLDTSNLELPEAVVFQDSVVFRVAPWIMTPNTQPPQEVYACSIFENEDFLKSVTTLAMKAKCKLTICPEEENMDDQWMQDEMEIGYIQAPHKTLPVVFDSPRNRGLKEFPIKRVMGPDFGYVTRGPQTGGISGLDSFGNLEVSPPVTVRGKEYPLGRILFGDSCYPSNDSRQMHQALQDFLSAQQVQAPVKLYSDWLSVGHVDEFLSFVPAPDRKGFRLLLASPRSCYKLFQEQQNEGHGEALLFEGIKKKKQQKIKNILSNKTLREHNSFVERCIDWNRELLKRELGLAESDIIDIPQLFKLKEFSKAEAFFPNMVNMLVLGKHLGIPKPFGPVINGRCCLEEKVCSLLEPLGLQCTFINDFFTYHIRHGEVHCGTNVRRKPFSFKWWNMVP
# MEASUREMENT_PROTOCOL: RFMS Human PAD4 Functional Assay
# Format: biochemical
# TEST_PARAMETERS: human PAD4, rapid-fire mass spectrum (RFMS) assay; 5 nM hPAD4, 250 μM BAEE; read-out: hPAD4 RFMS IC50
METRIC: IC50 (nM)
Use nM as the unit, but write only the number.

Use the examples below as a reference point.
1. COc1cc(C(=O)N2C[C@H]3CC[C@@H]2[C@@H]3N)cc2nc(-c3cc4cccc(C5CC6(CNC6)C5)c4n3CC3CC3)n(C)c12 = 34
2. COc1cc(C(=O)N2C[C@H]3CC[C@@H]2[C@@H]3N)cc2nc(-c3cc4cccc(C5=CCNCC5)c4n3CC3CC3)n(C)c12 = 34

# ---- query molecule ----
For record COc1cc(C(=O)N2C[C@H]3CC[C@@H]2[C@@H]3N)cc2nc(-c3cc4cccc(-n5cc([C@H]6CC[C@H](N)CC6)nn5)c4n3CC3CC3)n(C)c12 the listed IC50 is 175

* * *

# TESTED_SYSTEM: human PAD4 (hPAD4) (Homo sapiens)
# MEASUREMENT_PROTOCOL: RFMS Human PAD4 Functional Assay
# Format: biochemical
# TEST_PARAMETERS: human PAD4, rapid-fire mass spectrum (RFMS) assay; 5 nM hPAD4, 250 μM BAEE; read-out: hPAD4 RFMS IC50
Recorded pIC50 for the following molecules
In textbook form, pIC50 equals minus log to base ten of the concentration in mol/L.

Solved cases (2 shown):
1. COc1cc(C(=O)N2C[C@H]3CC[C@@H]2[C@@H]3N)cc2nc(-c3cc4cccc(C#N)c4n3CC3CC3)n(C)c12 [Example 183] = 6.89
2. CCOP(=O)(OCC)c1cccc2cc(-c3nc4cc(C(=O)N5C[C@H]6CC[C@@H]5[C@@H]6N)cc(OC)c4n3C)n(CC3CC3)c12 [Example 107] = 7.07

Measured pIC50, CNC(=O)C1CC(c2cccc3cc(-c4nc5cc(C(=O)N6C[C@H](N)C[C@@H](F)C6)cc(OC)c5n4C)n(CC4CC4)c23)C1 (single isomer, unassigned) [Example 111] : 7.12

For COc1cc(C(=O)N2C[C@H](N)CC[C@@H]2C)cc2nc(-c3cc4cccc(C5CN(C(C)=O)C5)c4n3CC3CC3)n(C)c12 [Example 42] the molecule record lists pIC50 as 6.85

The measured pIC50 associated with COc1cc(C(=O)N2C[C@H]3CC[C@@H]2[C@@H]3N)cc2nc(-c3cc4cccc(C5CC(NC(C)=O)C5)c4n3CC3CC3)n(C)c12 (stereo partly drawn) [Example 57] reads 8.00

The molecule listed as COc1cc(C(=O)N2C[C@H]3CC[C@@H]2[C@@H]3N)cc2nc(-c3cc4cccc(-c5cnn(C)c5)c4n3CC3CC3)n(C)c12 [Example 122] shows pIC50 equal to 7.24

Value of measured pIC50 for the entry COC(=O)N1CC(c2cccc3cc(-c4nc5cc(C(=O)N6C[C@H]7CC[C@@H]6[C@@H]7N)cc(OC)c5n4C)n(CC4CC4)c23)C1 [Example 40] : 7.68

In plain terms, COc1cc(C(=O)N2C[C@H]3CC[C@@H]2[C@@H]3N)cc2nc(-c3cc4cccc(CCCO)c4n3CC3CC3)n(C)c12 [Example 2] has a documented pIC50 of 7.49

* * *

# TESTED_SYSTEM: human PAD4 (hPAD4) (Homo sapiens, UniProt Q9UM07)
# MEASUREMENT_PROTOCOL: RFMS Human PAD4 Functional Assay
# Format: biochemical
# TEST_PARAMETERS: hPAD4 RFMS IC50, human PAD4, rapid-fire mass spectrum (RFMS) assay; 5 nM hPAD4, 250 μM BAEE
Overview of recorded IC50 for various compounds
Provide the reading as a plain figure in µM.

1) COc1cc(C(=O)N2C[C@H]3CC[C@@H]2[C@@H]3N)cc2nc(-c3cc4cccc(-c5ccc(O)c(Cl)c5)c4n3CC3CC3)n(C)c12 [Example 92] = 0.058
2) COc1cc(C(=O)N2C[C@H]3CC[C@@H]2[C@@H]3N)cc2nc(-c3cc4cccc(-c5ccc6c(c5)CC(=O)N6)c4n3CC3CC3)n(C)c12 [Example 97] = 0.023

Log: human PAD4 (hPAD4) (Homo sapiens, UniProt Q9UM07), compound COc1cc(C(=O)N2C[C@@H]3CC[C@@H]2C3N)cc2nc(-c3cc4cccc(-c5ccccc5C#N)c4n3CC3CC3)n(C)c12 (stereo partly drawn) [Example 143] , IC50 = 0.181

Noted IC50 for COC(=O)Nc1ccc(-c2cccc3cc(-c4nc5cc(C(=O)N6C[C@H]7CC[C@@H]6[C@@H]7N)cc(OC)c5n4C)n(CC4CC4)c23)cn1 [Example 105] , tested on human PAD4 (hPAD4) (Homo sapiens, UniProt Q9UM07): 0.099

Recorded IC50 for COc1cc(C(=O)N2C[C@H]3CC[C@@H]2[C@@H]3N)cc2nc(-c3cc4cccc(C5CCN(C(=O)C(C)OC)CC5)c4n3CC3CC3)n(C)c12 (stereo partly drawn) [Example 238] on human PAD4 (hPAD4) (Homo sapiens, UniProt Q9UM07) was 0.104

The recorded IC50 with human PAD4 (hPAD4) (Homo sapiens, UniProt Q9UM07) for COc1cc(C(=O)N2C[C@H]3CC[C@@H]2[C@@H]3N)cc2nc(-c3cc4cccc(Nc5cnn(CC(F)(F)F)c5)c4n3CC3CC3)n(C)c12 [Example 165] was 0.075

Record COc1cc(C(=O)N2C[C@H]3CC[C@@H]2[C@@H]3N)cc2nc(-c3cc4cccc(CCCCCN)c4n3CC3CC3)n(C)c12 [Example 16] ; system human PAD4 (hPAD4) (Homo sapiens, UniProt Q9UM07); IC50 = 0.039

IC50 value, target or system human PAD4 (hPAD4) (Homo sapiens, UniProt Q9UM07), for COc1cccc(NC(=O)N2CCC(c3cccc4cc(-c5nc6cc(C(=O)N7C[C@H]8CC[C@@H]7[C@@H]8N)cc(OC)c6n5C)n(CC5CC5)c34)CC2)c1 [Example 248] : 0.02

* * *

Each item that follows carries a reported log10 IC50.
# TESTED_SYSTEM: human PAD4 (hPAD4) (Homo sapiens, UniProt Q9UM07)
# MEASUREMENT_PROTOCOL: RFMS Human PAD4 Functional Assay
# Assay type: biochemical
# TEST_PARAMETERS: hPAD4 RFMS IC50, human PAD4, rapid-fire mass spectrum (RFMS) assay; 5 nM hPAD4, 250 μM BAEE
In our notation, the value equals log10 of IC50 in nM.

Notebook: COc1cc(C(=O)N2C[C@H]3CC[C@@H]2[C@@H]3N)cc2nc(-c3cc4cccc(C5CCN(C(=O)C(OC)C6CC6)CC5)c4n3CC3CC3)n(C)c12 (some centres unmarked) [Example 233] , log10 IC50 read as 1.80

For record COc1cc(C(=O)N2CC3CC[C@@H]2[C@@H]3N)cc2nc(-c3cc4cccc(-c5ccc6c(c5)C(C)(C)OC(=O)N6)c4n3CC3CC3)n(C)c12 (stereo in doubt) [Example 142] the listed log10 IC50 is 2.26

The compound identified as COC(=O)N1CCC(c2cccc3cc(-c4nc5cc(C(=O)N6C[C@H]7CC[C@@H]6[C@@H]7N)cc(OC)c5n4C)n(CC4CC4)c23)CC1 [Example 217] registered its log10 IC50 at 1.43

compound COc1cc(C(=O)N2C[C@H]3CC[C@@H]2[C@@H]3N)cc2nc(-c3cc4cccc(C5CCN(C(=O)COc6ccccc6)CC5)c4n3CC3CC3)n(C)c12 [Example 235] , log10 IC50 observed: 1.76

response.value for COc1cc(C(=O)N2C[C@H]3CC[C@@H]2[C@@H]3N)cc2nc(-c3cc4cccc(-c5ccc6c(c5)C(C)(O)C(=O)N6)c4n3CC3CC3)n(C)c12 (some centres unmarked) [Example 192] (field: log10 IC50) = 1.45

# log10 IC50 (compound: COc1cc(C(=O)N2C[C@H]3CC[C@@H]2[C@@H]3N)cc2nc(-c3cc4cccc(C5CCNCC5)c4n3CC3CC3)n(C)c12 [Example 4] ) is 1.48

Sure, the documented log10 IC50 for COc1cc(C(=O)N2C[C@H]3CC[C@@H]2[C@@H]3N)cc2nc(-c3cc4cccc(C5CN(C(=O)Cc6ccccc6)C5)c4n3CC3CC3)n(C)c12 [Example 72] is 1.00

The compound identified as COC(=O)c1cc(=O)[nH]c2ccc(-c3cccc4cc(-c5nc6cc(C(=O)N7C[C@H]8CC[C@@H]7[C@@H]8N)cc(OC)c6n5C)n(CC5CC5)c34)cc12 [Example 101] registered its log10 IC50 at 1.67

// log10 IC50 lookup, compound = CCNC(=O)N1CCC(c2cccc3cc(-c4nc5cc(C(=O)N6C[C@H]7CC[C@@H]6[C@@H]7N)cc(OC)c5n4C)n(CC4CC4)c23)CC1 [Example 250] , result: 0.90

Entry COc1cc(C(=O)N2C[C@H](N)C[C@@H](F)C2)cc2nc(-c3cc4cccc(C5CC(C(=O)N(C)C)C5)c4n3CC3CC3)n(C)c12 (single isomer, unassigned) [Example 117] , log10 IC50 reported as 2.07
